molecular target: human mGluR3 (Homo sapiens, UniProt Q14832); construct: expressed in transfected cells; host or cells: RGT cells; experiment: [3H]LY341495 displacement binding, mGlu3; conditions: displacement of [3H]LY341495; receptors expressed in RGT cells; read-out: Ki (nM) ± SEM mGlu3, effects on [3H]LY341495 binding
Sequence (Q14832 23-879): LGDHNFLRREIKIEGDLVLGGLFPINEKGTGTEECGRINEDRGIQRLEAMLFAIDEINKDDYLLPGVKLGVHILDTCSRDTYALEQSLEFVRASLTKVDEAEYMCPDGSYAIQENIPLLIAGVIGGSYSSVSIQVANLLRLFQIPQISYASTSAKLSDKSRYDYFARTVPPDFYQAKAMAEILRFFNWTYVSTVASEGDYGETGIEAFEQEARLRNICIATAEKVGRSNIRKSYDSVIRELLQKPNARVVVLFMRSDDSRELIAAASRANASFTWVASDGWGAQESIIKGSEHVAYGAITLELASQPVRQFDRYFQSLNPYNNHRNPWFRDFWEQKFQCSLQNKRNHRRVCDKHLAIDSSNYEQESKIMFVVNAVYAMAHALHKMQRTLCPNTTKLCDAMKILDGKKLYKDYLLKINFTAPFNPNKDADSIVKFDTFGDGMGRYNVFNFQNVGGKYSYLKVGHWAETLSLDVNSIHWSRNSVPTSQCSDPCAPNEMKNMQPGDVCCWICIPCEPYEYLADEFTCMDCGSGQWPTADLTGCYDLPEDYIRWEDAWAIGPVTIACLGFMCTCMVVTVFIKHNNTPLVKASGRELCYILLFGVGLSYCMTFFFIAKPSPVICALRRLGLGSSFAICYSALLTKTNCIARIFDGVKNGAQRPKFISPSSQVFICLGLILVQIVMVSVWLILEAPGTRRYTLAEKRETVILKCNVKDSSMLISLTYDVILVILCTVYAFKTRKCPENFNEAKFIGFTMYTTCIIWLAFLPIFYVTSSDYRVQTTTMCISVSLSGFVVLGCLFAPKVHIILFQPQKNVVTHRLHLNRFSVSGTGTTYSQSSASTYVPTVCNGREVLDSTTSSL
RESULT TYPE: Ki (nM)
Numbers only; they are read as nM.

Consider CC(=O)N[C@H]1C[C@@](N)(C(=O)O)[C@@H]2[C@@H](C(=O)O)[C@@H]21 (relative stereo) [Example 23] . Its measured Ki is 214

Consider N[C@@]1(C(=O)O)C[C@H](NC(=O)c2ccccc2)[C@H]2[C@H](C(=O)O)[C@H]21 (relative stereo) [Example 24] . Its measured Ki is 9.54

Consider CNC(=O)N[C@@H]1C[C@@](N)(C(=O)O)[C@@H]2[C@@H](C(=O)O)[C@@H]21 (relative stereo) . Its measured Ki is 408

Consider CNC(=O)N[C@H]1C[C@@](N)(C(=O)O)[C@@H]2[C@@H](C(=O)O)[C@@H]21 (relative stereo) [Example 20] . Its measured Ki is 23

Consider N[C@@]1(C(=O)O)C[C@@H](NC(=O)c2ccccc2)[C@H]2[C@H](C(=O)O)[C@H]21 (relative stereo) . Its measured Ki is 393

Consider CC(=O)N[C@@H]1C[C@@](N)(C(=O)O)[C@@H]2[C@@H](C(=O)O)[C@@H]21 (relative stereo) . Its measured Ki is 399
